The origin of these recorded values is paper PMC8162404.

biological target: Gal-1 (Homo sapiens); construct: made in house; host or cells: E. coli BL21(DE3); assay: Pull-down assay with immobilized protein and LSM libraries; type: binding; conditions: H12 library; 1:1 binding assumed; read-out: Surface mapping KD (apparent)
Sequence (P09382 whole entry): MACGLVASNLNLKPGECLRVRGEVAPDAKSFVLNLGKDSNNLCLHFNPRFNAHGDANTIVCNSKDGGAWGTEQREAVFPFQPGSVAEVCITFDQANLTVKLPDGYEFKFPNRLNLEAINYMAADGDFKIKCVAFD
value kind: Kd (µM)

For NC(=O)[C@H]1CCC[C@@H]1NC(=O)[C@H]1CCC[C@@H]1NC(=O)C[C@H](CCC(=O)O)NC(=O)[C@H]1CCC[C@@H]1NC(=O)[C@H]1CCC[C@@H]1NC(=O)C[C@H](Cc1ccc(O)cc1)NC(=O)[C@H]1CCC[C@@H]1NC(=O)[C@H]1CCC[C@@H]1N [H12 YE] the compound record lists Kd as 198

response.value for C[C@@H](CC(=O)N[C@H]1CCC[C@@H]1C(=O)N[C@H]1CCC[C@@H]1C(N)=O)NC(=O)[C@H]1CCC[C@@H]1NC(=O)[C@H]1CCC[C@@H]1NC(=O)C[C@H](Cc1ccc(O)cc1)NC(=O)[C@H]1CCC[C@@H]1NC(=O)[C@H]1CCC[C@@H]1N [H12 YA] (field: Kd) = 222

====

target: Gal-1 (Homo sapiens); construct: made in house; host or cells: E. coli BL21(DE3); assay: Pull-down assay with immobilized protein and LSM libraries; assay type: binding; details: H12 library; 1:1 binding assumed; read-out: Surface mapping KD (apparent)
value kind: Kd (µM)

For orientation, consider the following solved cases.
Value of measured Kd for the entry CC(C)C[C@@H](CC(=O)N[C@H]1CCC[C@@H]1C(=O)N[C@H]1CCC[C@@H]1C(=O)N[C@@H](CC(N)=O)CC(=O)N[C@H]1CCC[C@@H]1C(=O)N[C@H]1CCC[C@@H]1C(N)=O)NC(=O)[C@H]1CCC[C@@H]1NC(=O)[C@H]1CCC[C@@H]1N : 423

Kd reported for this molecule NCCCC[C@@H](CC(=O)N[C@H]1CCC[C@@H]1C(=O)N[C@H]1CCC[C@@H]1C(N)=O)NC(=O)[C@H]1CCC[C@@H]1NC(=O)[C@H]1CCC[C@@H]1NC(=O)C[C@H](CCC(=O)O)NC(=O)[C@H]1CCC[C@@H]1NC(=O)[C@H]1CCC[C@@H]1N : 200

(a) C[C@@H](O)[C@@H](CC(=O)N[C@H]1CCC[C@@H]1C(=O)N[C@H]1CCC[C@@H]1C(N)=O)NC(=O)[C@H]1CCC[C@@H]1NC(=O)[C@H]1CCC[C@@H]1NC(=O)C[C@H](CCCNC(=N)N)NC(=O)[C@H]1CCC[C@@H]1NC(=O)[C@H]1CCC[C@@H]1N
(b) C[C@@H](CC(=O)N[C@H]1CCC[C@@H]1C(=O)N[C@H]1CCC[C@@H]1C(=O)N[C@@H](CO)CC(=O)N[C@H]1CCC[C@@H]1C(=O)N[C@H]1CCC[C@@H]1C(N)=O)NC(=O)[C@H]1CCC[C@@H]1NC(=O)[C@H]1CCC[C@@H]1N
a or b : whose Kd is greater? Identify your pick by its label.
b

====

Target: CaM (Bos taurus, UniProt P62157)
Construct: made in house; host or cells: E. coli BL21 (DE3)
Assay: Pull-down assay with immobilized protein and LSM libraries
Assay type: binding, bovine
Conditions: H12 library; 1:2 stoichiometry assumed; read-out: Surface mapping KD (apparent)
Method: Pull-down assays with immobilized test proteins and foldameric LSM libraries were carried out. Proteins were equilibrated with LSM probes, and equilibrium bound fractions (FB) were determined from the unbound fractions measured by HPLC-MS methods. Hits were corrected with background binding of the resin. […] MS data analysis. […] Using these processing setups, all raw data files were reprocessed together and analyzed. […]
value kind: Kd (µM)

(I) NC(=O)[C@H]1CCC[C@@H]1NC(=O)[C@H]1CCC[C@@H]1NC(=O)C[C@H](CO)NC(=O)[C@H]1CCC[C@@H]1NC(=O)[C@H]1CCC[C@@H]1NC(=O)C[C@H](CO)NC(=O)[C@H]1CCC[C@@H]1NC(=O)[C@H]1CCC[C@@H]1N [H12 SS]
(II) CC(C)[C@@H](CC(=O)N[C@H]1CCC[C@@H]1C(=O)N[C@H]1CCC[C@@H]1C(N)=O)NC(=O)[C@H]1CCC[C@@H]1NC(=O)[C@H]1CCC[C@@H]1NC(=O)C[C@H](Cc1c[nH]c2ccccc12)NC(=O)[C@H]1CCC[C@@H]1NC(=O)[C@H]1CCC[C@@H]1N [H12 WV]
Larger number for Kd: I , or II ? Kindly give the label for the entry you pick.
I
